Tested on: Proteus vulgaris
Experimental Protocol: Antibacterial activity against Proteus vulgaris after 24 hrs by two fold serial dilution technique
Assay type: functional
Consider the following compounds and their measured MIC readings.
Hi! Could you send only the number? It should be in µg/mL, unit omitted.

The examples below pair each entry with its known result.
Answer with the recorded MIC of O=C(O)CNC(=O)c1ccc(NC(=S)NNS(=O)(=O)c2ccccc2)cc1 only. 12.5

Answer with the recorded MIC of O=C(O)CNC(=O)c1ccc(NC(=S)Nc2ccc(C(=O)NCC(=O)O)cc2)cc1 only. 25

Shift focus to the following entry.
Answer with the recorded MIC of O=C(O)c1cn(C2CC2)c2cc(N3CCNCC3)c(F)cc2c1=O only. 12.5
